Test system: SKOV3 (human ovarian carcinoma)
assay protocol: CCK-8 antiproliferative assay, SKOV3 cell line
settings: Homo sapiens, SK-OV-3, read-out: IC50 SKOV3, SKOV3 cell line, CCK-8
measurement name: IC50

Some molecules with known IC50 results, for comparison:
{"molecule": "CCOC(=O)[C@]1(C)C[C@@H](Nc2ccc(C)cc2)C(=O)N1c1ccc(C)cc1 (relative stereo)", "IC50": "> 50 µM"}
{"molecule": "Cc1ccc(NC2=CC(C(F)(F)F)N(c3ccc(C)cc3)C2=O)cc1 (stereo not drawn)", "IC50": "> 50 µM"}

Query molecule follows.
Prompt: Which IC50 value is on record for CCOC(=O)C1(C)C=C(Nc2ccc(C)cc2)C(=O)N1c1ccc(C)cc1 (stereo not drawn) ?
Completion: > 50 µM
